Source of measurements: PubChem BioAssay AID1851

test-target: Cytochrome P450 2C19 (Homo sapiens) (UniProt P33261)
Sequence (P33261 whole entry, looked up): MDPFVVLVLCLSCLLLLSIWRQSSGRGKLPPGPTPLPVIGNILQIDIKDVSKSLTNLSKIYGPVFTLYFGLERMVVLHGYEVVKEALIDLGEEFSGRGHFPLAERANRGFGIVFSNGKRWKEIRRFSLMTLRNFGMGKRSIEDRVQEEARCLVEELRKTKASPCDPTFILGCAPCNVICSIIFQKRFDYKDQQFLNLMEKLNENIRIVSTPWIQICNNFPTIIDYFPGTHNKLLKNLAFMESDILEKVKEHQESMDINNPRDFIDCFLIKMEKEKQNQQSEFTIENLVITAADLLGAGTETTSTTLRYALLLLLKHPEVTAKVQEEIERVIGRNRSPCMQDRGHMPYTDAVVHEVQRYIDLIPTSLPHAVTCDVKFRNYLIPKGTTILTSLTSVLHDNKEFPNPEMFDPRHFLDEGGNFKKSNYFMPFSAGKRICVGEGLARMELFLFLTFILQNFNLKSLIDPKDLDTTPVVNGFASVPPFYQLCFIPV
method-notes: Cytochrome panel assay with activity outcomes
assay-conditions: recombinant CYP, pro-luciferin dealkylation, luminescence, p450-cyp2c19; series mostly up to 57.1 µM
About 5,800 (36%) of roughly 16,000 compounds were called active. Inconclusive results (about 23%) are left out. The call rests on the fitted dose curve; in most records, active means well fitted curve in the direction sought with a large enough effect; inconclusive means small, poorly fitted or top-dose-only effect, or effect the other way; inactive means no such curve, though single readings can be large or run the other way. This is one part of the list.
Just give me one of these, please: active, inactive

compound: Cc1ccc(C2NC(c3ccc(C)cc3)C(C)C(=NO)C2C)cc1 (stereo not given)
group-label: active

Input: Check the results log: what was the call for Cc1cccc(CNc2nc(-c3ccoc3)nc3ccccc23)c1 ?
Output: active

Input: Check the results log: what was the call for CO[C@H]1[C@H](O[C@H]2O[C@@H](C)[C@@H](O[C@@H]3C[C@](C)(O)[C@H](OC(=O)CC(C)C)[C@H](C)O3)[C@@H](N(C)C)[C@@H]2O)[C@@H](CC=O)C[C@@H](C)[C@@H](O)/C=C\C=C/C[C@@H](C)OC(=O)C[C@H]1OC(C)=O ?
Output: inactive

Input: Check the results log: what was the call for Cc1ccc(C)c(NC(=O)C2CC3c4ccccc4C2c2ccccc23)c1 (stereo not given) ?
Output: active

Input: Check the results log: what was the call for COCCNC(=O)c1cn(Cc2c(F)cccc2Cl)nn1 ?
Output: active

Input: Check the results log: what was the call for Cn1c(N)c(C(=O)CSc2ccc3c(c2)OCCO3)c(=O)n(C)c1=O ?
Output: active

====

test-target: Cytochrome P450 2C19 (Homo sapiens)
method-notes: Cytochrome panel assay with activity outcomes
assay-conditions: recombinant CYP, pro-luciferin dealkylation, luminescence, p450-cyp2c19; series mostly up to 57.1 µM
Hit rate of the full screen: of about 16,000 compounds, about 5,800 (36%) were called active. Roughly 23% stayed inconclusive and do not appear here. The list shows a part of the results.
readout: AC50

// below: answered molecules
molecule: Cc1ccc(CNC(=O)Cn2c(=O)oc3ccccc32)o1
test-target: Cytochrome P450 2C19 (Homo sapiens)
AC50: 3.55 µM (active)
//
molecule: CCOc1ccc(N2C(=O)/C(=C/c3cccs3)N(CC(=O)OC)C2=S)cc1
test-target: Cytochrome P450 2C19 (Homo sapiens)
AC50: inactive
//
molecule: CCn1c(C)c(/C=N/Nc2nc3ccccc3s2)c2ccccc21
test-target: Cytochrome P450 2C19 (Homo sapiens)
AC50: 3.16 µM (active)
//
molecule: COc1cc([C@@H](O)CO)ccc1OS(=O)(=O)O
test-target: Cytochrome P450 2C19 (Homo sapiens)
AC50: inactive
//
molecule: COc1cc(C)c(Br)cc1S(=O)(=O)NCc1ccccc1
test-target: Cytochrome P450 2C19 (Homo sapiens)
AC50: 4.47 µM (active)
//
molecule: CCOc1ccc(N2C(=O)/C(=C/c3cc(OC)c(OC)c(OC)c3)N(CC(=O)OC)C2=S)cc1
test-target: Cytochrome P450 2C19 (Homo sapiens)
AC50: 3.55 µM (active)
//
molecule: O=C(Nc1ccc2c(c1)OCCO2)c1cc2sccc2n1Cc1ccccc1
test-target: Cytochrome P450 2C19 (Homo sapiens)
AC50: 3.16 µM (active)
//
molecule: O=C(N/N=C/C1C(c2ccccc2)C1(Cl)Cl)c1cccc(Br)c1 (stereo unspecified)
test-target: Cytochrome P450 2C19 (Homo sapiens)
AC50: 7.08 µM (active)
//
molecule: O=C1NC(=S)N/C1=C/c1cccc([N+](=O)[O-])c1O
test-target: Cytochrome P450 2C19 (Homo sapiens)
AC50: inactive
//
molecule: Cc1ccccc1-c1cc(-c2ccccc2O)on1
test-target: Cytochrome P450 2C19 (Homo sapiens)
AC50: 4.47 µM (active)

Dear colleague, could you please provide AC50 for the molecules listed below?
1. Cc1cc(Cl)ccc1Oc1ncnc2oc(-c3ccccc3)cc12
2. CCOCCCn1cnc2c(c1=O)c1nc3ccccc3nc1n2-c1ccccc1
3. COc1cccc(C(=O)/C=C/c2ccc(SC)cc2)c1
4. Cc1cnc(CNc2nc(-c3ccc(C(=O)N(C)C)cc3)nc3ccccc23)cn1
5. COc1ccc(OC)c2[nH]c(=O)c(CCNC(=O)COc3ccccc3)cc12
6. COc1ccccc1NC(=O)CN1CCN(C2c3ccccc3-c3ccccc32)CC1

Output:
1.12 µM (active)
inactive
0.631 µM (active)
inactive
14.1 µM (active)
0.708 µM (active)

Dear colleague, could you please provide AC50 for the molecules listed below?
1. CC(C)NC(=O)N1CCC2(CC1)CCN(C(=O)c1ccco1)CC2
2. CSc1cccc(NC(=O)Cn2cccc2)c1
3. COCCCNC(=O)CCC(=O)Nc1ccc2nc(N3CCOCC3)cc(C)c2c1
4. CSc1cc(C)nc(NC(C)=O)n1
5. COc1ccc(-c2cc(C(F)F)nc(-n3nc(C)cc3C)n2)cc1
6. CCCCCCCCCCCCCCCCCCc1ccc(C(=O)/C=C\C(=O)O)cc1
7. O=C(N/N=C\c1ccc(Sc2ccccn2)o1)c1cccc(Br)c1

Output:
["inactive", "6.31 µM (active)", "inactive", "7.94 µM (active)", "28.2 µM (active)", "inactive", "2.51 µM (active)"]

Dear colleague, could you please provide AC50 for the molecules listed below?
1. COc1ccc(OC)c2[nH]c(=O)c(CCNS(=O)(=O)c3ccc(C)cc3)cc12
2. Cc1cccc(Oc2coc3cc(OC(=O)c4cccs4)ccc3c2=O)c1

Output:
1. 15.8 µM (active)
2. 3.98 µM (active)

====

test-target: Cytochrome P450 2C19 (Homo sapiens)
method-notes: Cytochrome panel assay with activity outcomes
assay-conditions: recombinant CYP, pro-luciferin dealkylation, luminescence, p450-cyp2c19; series mostly up to 57.1 µM
Out of some 16,000 compounds screened, about 5,800 (36%) were called active. About 23% were inconclusive and are not listed. Calls follow the shape of the dose curve; as a rule, active = well fitted curve in the direction sought with a large enough effect; inconclusive = small, poorly fitted or top-dose-only effect, or effect the other way; inactive = no such curve, though single readings can be large or run the other way. This is one part of the list.
Just give me one of these, please: class 1 = active, class 0 = inactive

Recorded results for 5 compounds are shown here.
smiles-string: Oc1ccc(Cc2cc(Cl)cc(Cl)c2O)cc1Cl
group-label: class 1
//
smiles-string: O=C(CN1CCN(c2ccc(Cl)cc2)CC1)Nc1cccc(F)c1
group-label: class 1
//
smiles-string: CCN(CC)C(=O)c1cc2cc([N+](=O)[O-])ccc2s1
group-label: class 1
//
smiles-string: Nc1[nH]n2c(=O)c3c(nc2c1N=Nc1ccccc1)CCCC3
group-label: class 0
//
smiles-string: Oc1ccc(Cl)cc1Cc1cc(Cl)cc(Cc2cc(Cl)ccc2O)c1O
group-label: class 1

Input: Check the results log: what was the call for N#Cc1c[nH]n2c(=O)c3c(nc12)CCCC3 ?
Output: class 0

Input: Check the results log: what was the call for O=C(COc1ccc(Cl)cc1)Nc1ccc(N2CCN(C(=O)c3ccco3)CC2)cc1 ?
Output: class 0

Input: Check the results log: what was the call for COC(=O)Cc1cc(=O)n2[nH]c(C)c(-c3ccccc3)c2n1 ?
Output: class 0

Input: Check the results log: what was the call for OCCNCCCOc1cccc(Cl)c1Cl ?
Output: class 1

Input: Check the results log: what was the call for O=C(CN1CCN(c2ccc(Cl)cc2)CC1)Nc1ccc(F)c(F)c1 ?
Output: class 1

Input: Check the results log: what was the call for Cc1cccc(NC(=O)CSc2nc(COc3ccccc3)nc3ccccc23)c1C ?
Output: class 1

====

test-target: Cytochrome P450 2C19 (Homo sapiens)
method-notes: Cytochrome panel assay with activity outcomes
assay-conditions: recombinant CYP, pro-luciferin dealkylation, luminescence, p450-cyp2c19; series mostly up to 57.1 µM
In all, about 16,000 compounds went through this assay and about 5,800 (36%) were called active. Not shown: some 23% with an inconclusive outcome. The call rests on the fitted dose curve; in most records, active means well fitted curve in the direction sought with a large enough effect; inconclusive means small, poorly fitted or top-dose-only effect, or effect the other way; inactive means no such curve, though single readings can be large or run the other way. The list shows a part of the results.
Just give me one of these, please: class 1 (active), class 0 (inactive)

Recorded results for 10 compounds are shown here.
compound: O=C(Nc1cccc(F)c1)/C(=C\c1ccco1)NC(=O)c1cccs1
group-label: class 1
--
compound: O=C(c1cc(Br)ccc1O)c1cc(Br)ccc1O
group-label: class 1
--
compound: COc1ccc2c(c1)c(CC(=O)O)c(C)n2C(=O)c1ccccc1
group-label: class 0
--
compound: Cc1ccc(SCc2nnc(NC(=O)c3ccccc3)s2)cc1
group-label: class 0
--
compound: O=C(Cn1c(SCC(=O)N2CCc3ccccc3C2)nc2ccccc21)NC1CCCC1
group-label: class 1
--
compound: O=C(NCc1n[nH]c(=S)n1-c1cccc(Cl)c1)c1ccc(S(=O)(=O)N2CCCC2)cc1
group-label: class 0
--
compound: Cc1cc(C)n(CCCNCC(O)c2ccccc2)n1 (stereo not drawn)
group-label: class 0
--
compound: Cc1ccccc1NS(=O)(=O)c1cc(C(=O)Nc2cccc(N(C)S(C)(=O)=O)c2)ccc1C
group-label: class 1
--
compound: O=C(NCc1ccccc1)c1cccc(COc2cccc(Cl)c2)c1
group-label: class 1
--
compound: CCNc1ncc2nc(-c3ccc(OC)cc3)c(=O)n(-c3ccc(OC)cc3)c2n1
group-label: class 0

Input: Check the results log: what was the call for Cc1cc(N)n2ncc(-c3ccc(Cl)cc3)c2n1 ?
Output: class 1

Input: Check the results log: what was the call for NCCCCCCCCCCN ?
Output: class 0

Input: Check the results log: what was the call for Cc1nn(-c2ccccc2)c(Cl)c1C(=O)Nc1c(C)n(C)n(-c2ccccc2)c1=O ?
Output: class 0

Input: Check the results log: what was the call for Cc1ccc(SCCNC(=O)c2ccc(C)c(S(=O)(=O)Nc3ccccc3C)c2)cc1 ?
Output: class 1

Input: Check the results log: what was the call for Cc1ccc(SCCNC(=O)c2ccccc2)cc1 ?
Output: class 1

Input: Check the results log: what was the call for Cc1ccc(SCc2ccc(C(=O)NCc3ccncc3)cc2)cc1 ?
Output: class 1

Input: Check the results log: what was the call for CCOC(=O)c1nnn(-c2nc(OC)nc(N3CCCCC3)n2)c1-c1ccccc1 ?
Output: class 1

Input: Check the results log: what was the call for O=C(Nc1cc(C(F)(F)F)ccc1-n1cncn1)c1ccc(Br)cc1 ?
Output: class 1

Input: Check the results log: what was the call for O=c1c(Cl)c(N2CCN(S(=O)(=O)c3ccc(F)cc3)CC2)cnn1-c1cccc(Cl)c1 ?
Output: class 1

Input: Check the results log: what was the call for COCc1c(C(N)=O)nnn1-c1nonc1N ?
Output: class 0
